This collection of values is drawn from patent US20230122344A1.

Biological target: Human M4 (Homo sapiens)
Construct: expressed in transfected cells; host or cells: CHO-K1 (ATCC), co-transfected with chimeric G protein Gqi5
Assay: mAChR M4 cell-based functional assay (calcium flux, antagonism of EC80 acetylcholine response)
Settings: CHO-K1, % ACh maximum at 30 μM; M4/Gqi5/CHO-K1 cells; read-out: Human M4 Emin
Experimental: Human or rat M4 cDNA, along with the chimeric G protein Gqi5, were transfected into Chinese hamster ovary (CHO-K1) cells purchased from the American Type Culture Collection using Lipofectamine2000. […] Calcium flux was measured using the Functional Drug Screening System (FDSS) 6000 or 7000 (Hamamatsu Corporation, Tokyo, Japan) as an increase in the fluorescent static ratio. […] Agonist activity was analyzed as a concentration-dependent increase in calcium mobilization upon compound addition. […]
Reported Endpoint: remaining activity at 30 µM (%)
Give bare numbers, in %.

>  <Structure>
[2H]C([2H])(C1CCOCC1)N1C[C@H]2C[C@H](Nc3nnc(-c4cc(F)ccc4F)c(C)c3C(F)(F)F)C[C@H]2C1

>  <System Name>
Human M4 (Homo sapiens)

>  <Recorded Measurement>
3

$$$$

I'm hoping you can list remaining activity at 30 µM for every molecule here, please.
1. COc1cc(-c2cc(F)ccc2C)nnc1N[C@H]1C[C@@H]2CN(CC3CCOCC3)C[C@@H]2C1
2. [2H]C([2H])(C1CCOCC1)N1C[C@H]2C[C@H](Nc3nnc(-c4ccccc4)cc3C)C[C@H]2C1
3. [2H]C([2H])(C1CCOCC1)N1C[C@H]2C[C@H](Nc3nnc(-c4ccccc4)c(C)c3C(F)(F)F)C[C@H]2C1
4. Fc1ccc(F)c(-c2cc(C(F)F)c(N[C@H]3C[C@@H]4CN(C[C@H]5COCCO5)C[C@@H]4C3)nn2)c1

### Response
1. 9
2. 4
3. 3
4. 4

### Prompt Request body: readout remaining activity at 30 µM, system Human M4 (Homo sapiens), query [2H]C([2H])(C1CCOCC1)N1C[C@H]2C[C@H](Nc3cc(C4(C(F)(F)F)CC4)c(-c4cc(F)cc(F)c4F)nn3)C[C@H]2C1 . Return the value.
### Response 3

###

Molecular target: Human M4 (Homo sapiens, UniProt P08173)
Construct: expressed in transfected cells; host or cells: CHO-K1 (ATCC), co-transfected with chimeric G protein Gqi5
Sequence (P08173 whole entry): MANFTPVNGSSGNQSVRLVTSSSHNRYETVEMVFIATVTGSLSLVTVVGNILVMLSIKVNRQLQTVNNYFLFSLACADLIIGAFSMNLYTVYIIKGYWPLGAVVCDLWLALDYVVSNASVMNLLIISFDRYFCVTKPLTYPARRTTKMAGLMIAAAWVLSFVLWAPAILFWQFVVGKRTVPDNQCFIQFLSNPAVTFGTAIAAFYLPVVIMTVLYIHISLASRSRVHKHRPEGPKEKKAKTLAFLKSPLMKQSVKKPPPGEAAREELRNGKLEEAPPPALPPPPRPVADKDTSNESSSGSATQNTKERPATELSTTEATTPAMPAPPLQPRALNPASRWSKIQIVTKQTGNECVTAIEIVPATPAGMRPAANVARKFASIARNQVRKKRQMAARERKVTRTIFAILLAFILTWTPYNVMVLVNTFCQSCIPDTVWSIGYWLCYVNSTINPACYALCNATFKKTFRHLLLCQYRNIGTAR
Experiment: mAChR M4 cell-based functional assay (calcium flux, antagonism of EC80 acetylcholine response)
Settings: CHO-K1, % ACh maximum at 30 μM; M4/Gqi5/CHO-K1 cells; read-out: Human M4 Emin
Would you kindly list remaining activity at 30 µM for each of these compounds?
Answers are plain numbers, in %.

Solved entries:
>  <Compound>
[2H]C([2H])(C1CCOCC1)N1C[C@H]2C[C@H](Nc3nnc(-c4cc(F)cc(F)c4F)c(C4CC4)c3C(F)(F)F)C[C@H]2C1 [compound 77]

>  <Recorded Measurement>
2

$$$$
>  <Compound>
Fc1ccc(Cl)c(-c2nnc(N[C@H]3C[C@@H]4CN(CC5CCOCC5)C[C@@H]4C3)cc2C(F)F)c1 [compound 44]

>  <Recorded Measurement>
2

$$$$
>  <Compound>
Cc1c(-c2cc(F)ccc2F)nnc(N[C@H]2C[C@@H]3CN(C[C@H]4CC5CCC4O5)C[C@@H]3C2)c1C#N (stereo partly shown) [compound 66]

>  <Recorded Measurement>
3

$$$$

I'm hoping you can list remaining activity at 30 µM for every compound here, please.
1. COc1cc(-c2ccc(F)cc2)nnc1N[C@H]1C[C@@H]2CN(CC3CCOCC3)C[C@@H]2C1 [compound 3]
2. [2H]C([2H])(C1CCOCC1)N1C[C@H]2C[C@H](Nc3cc(C4(C(F)(F)F)CC4)c(-c4cc(F)c(F)cc4F)nn3)C[C@H]2C1 [compound 38]
3. [2H]C([2H])(C1CCOCC1)N1C[C@H]2C[C@H](Nc3nnc(-c4cc(F)ccc4F)cc3C)C[C@H]2C1 [compound 11]
4. [2H]C([2H])(C1CCOCC1)N1C[C@H]2C[C@H](Nc3nnc(-c4cc(F)ccc4C)cc3C3CC3)C[C@H]2C1 [compound 26]
5. [2H]C([2H])(C1CCOCC1)N1C[C@H]2C[C@H](Nc3cc(C)c(-c4ccc5nn(C)cc5c4)nn3)C[C@H]2C1 [compound 19]
6. FC(F)c1cc(-c2ccccc2OC(F)(F)F)nnc1N[C@H]1C[C@@H]2CN(CC3CCOCC3)C[C@@H]2C1 [compound 86]

### Response
1: 5; 2: 3; 3: 3; 4: 3; 5: 4; 6: 5

I'm hoping you can list remaining activity at 30 µM for every compound here, please.
1. [2H]C([2H])(C1CCOCC1)N1C[C@H]2C[C@H](Nc3nnc(-c4cc(F)ccc4C)cc3C)C[C@H]2C1 [compound 20]
2. Cc1cc(N[C@H]2C[C@@H]3CN(CC4CCOCC4)C[C@@H]3C2)nnc1-c1cc(F)ccc1F [compound 13]
3. Cc1c(-c2cc(F)ccc2Cl)nnc(N[C@H]2C[C@@H]3CN(CC4CCOCC4)C[C@@H]3C2)c1C#N [compound 67]
4. Fc1cc(F)c(F)c(-c2nnc(N[C@H]3C[C@@H]4CN(C[C@H]5COCCO5)C[C@@H]4C3)cc2C(F)F)c1 [compound 57]
5. CC(c1ccccn1)N1C[C@H]2C[C@H](Nc3cc(C(F)F)c(-c4cc(F)cc(F)c4F)nn3)C[C@H]2C1 (stereo partly shown) [compound 50]
6. [2H]C([2H])(C1CCOCC1)N1C[C@H]2C[C@H](Nc3nnc(-c4cccc(F)c4)c(C)c3C)C[C@H]2C1 [compound 62]
7. [2H]C([2H])(C1CCOCC1)N1C[C@H]2C[C@H](Nc3nnc(-c4cc(F)cc(F)c4F)cc3C3CC3(F)F)C[C@H]2C1 (stereo partly shown) [compound 33]
8. Cn1cc2cc(-c3cc(C(F)F)c(N[C@H]4C[C@@H]5CN(CC6CCOCC6)C[C@@H]5C4)nn3)ccc2n1 [compound 83]

### Response
1: 3; 2: 5; 3: 2; 4: 3; 5: 2; 6: 2; 7: 3; 8: 5

I'm hoping you can list remaining activity at 30 µM for every compound here, please.
1. [2H]C(C)(c1ccccn1)N1C[C@H]2C[C@H](Nc3cc(C(F)F)c(-c4cc(F)cc(F)c4F)nn3)C[C@H]2C1 (stereo partly shown) [compound 51]
2. Cc1ccc(C(F)(F)F)cc1-c1cc(C(F)F)c(N[C@H]2C[C@@H]3CN(CC4CCOCC4)C[C@@H]3C2)nn1 [compound 82]
3. [2H]C([2H])(C1CCOCC1)N1C[C@H]2C[C@H](Nc3nnc(-c4ccccc4F)c(C)c3C)C[C@H]2C1 [compound 61]
4. Fc1cc(F)c(F)c(-c2nnc(N[C@H]3C[C@@H]4CN(CC5CCCCC5)C[C@@H]4C3)cc2C(F)F)c1 [compound 53]

### Response
2
4
2
2

I'm hoping you can list remaining activity at 30 µM for every compound here, please.
1. [2H]C([2H])(C1CCOCC1)N1C[C@H]2C[C@H](Nc3cc(C(F)F)c(-c4cc(F)ccc4C)nn3)C[C@H]2C1 [compound 32]
2. Cc1cc(N[C@H]2C[C@@H]3CN(CC4CCOCC4)C[C@@H]3C2)nnc1-c1ccc2nn(C)cc2c1C [compound 16]
3. [2H]C([2H])(C1CCOCC1)N1C[C@H]2C[C@H](Nc3nnc(-c4cc(F)ccc4F)cc3C3CCC3)C[C@H]2C1 [compound 30]
4. Cc1c(-c2ccc(F)cc2)nnc(N[C@H]2C[C@@H]3CN(CC4CCOCC4)C[C@@H]3C2)c1C#N [compound 73]

### Response
1: 3; 2: 3; 3: 2; 4: 4
